Test: Volume of distribution in mouse at 10 mg/kg
Assay type: ADME, organism-based
Set-up: dose 10 mg/kg
Settings: in vivo, read-out: Vdss
readout: Vd (L/kg)
Give your result in L/kg as a bare value.

**Query** What value of Vd has been reported for the following compound? Cc1ccc(C(=O)N(CCCN)C(c2nn3c(Cl)ccc3c(=O)n2Cc2ccccc2)C2CC2)cc1 (stereo unspecified)
**Result** 5.9

----------
Assay: Mean residence time in mouse at 10 mg/kg
Assay type: ADME, organism-based
Set-up: dose 10 mg/kg
Conditions: in vivo
readout: MRT (h)
Give your result in h as a bare value.

**Query** What value of MRT has been reported for the following compound? Cc1ccc(C(=O)N(CCCN)C(c2nn3c(Cl)ccc3c(=O)n2Cc2ccccc2)C2CC2)cc1 (stereo unspecified)
**Result** 6.5
